- TEST: LNP size and polydispersity index by Dynamic Light Scattering (Malvern Zetasizer)
- Type: physicochemical
- EXPERIMENTAL PARAMETERS: Table 6 (Example 4, HA mRNA); ionizable lipid/DSPC/Chol/DMG-PEG2000 50/10/38.5/1.5 mol %; N/P 10
Item-by-item account of PDI
MEASURED PARAMETER: PDI

• CCCCCCCCC(CCCCCC)C(=O)OCCN(CCOC(=O)C(CCCCCC)CCCCCCCC)C(=O)OCCSSCCOC(=O)NCCN1CCCCCC1 (stereo not shown) = 0.083
• CCCCCCCC/C=C\CCCCCCCC(=O)OCC(CNC(=O)OCCSSCCOC(=O)NCCN1CCCCCC1)OC(=O)CCCCCCC/C=C\CCCCCCCC (stereo not shown) = 0.077
• CCCCCCCCC(CCCCCC)C(=O)OCCN(CCOC(=O)C(CCCCCC)CCCCCCCC)C(=O)OCCSSCCOC(=O)NCCN1CCN(C)CC1 (stereo not shown) = 0.1515
• CCCCCCCCC(CCCCCC)C(=O)OCCN(CCOC(=O)C(CCCCCC)CCCCCCCC)C(=O)OCCSSCCOC(=O)NCCN(C)C (stereo not shown) = 0.184
